target: UniProt P28223; assay: Binding assay 5-HT2A (h), [3H]ketanserin, HEK-293 cells; design: expressed in transfected cells; host or cells: HEK-293 cells; conditions: read-out: 5-HT2A
Sequence (P28223 whole entry): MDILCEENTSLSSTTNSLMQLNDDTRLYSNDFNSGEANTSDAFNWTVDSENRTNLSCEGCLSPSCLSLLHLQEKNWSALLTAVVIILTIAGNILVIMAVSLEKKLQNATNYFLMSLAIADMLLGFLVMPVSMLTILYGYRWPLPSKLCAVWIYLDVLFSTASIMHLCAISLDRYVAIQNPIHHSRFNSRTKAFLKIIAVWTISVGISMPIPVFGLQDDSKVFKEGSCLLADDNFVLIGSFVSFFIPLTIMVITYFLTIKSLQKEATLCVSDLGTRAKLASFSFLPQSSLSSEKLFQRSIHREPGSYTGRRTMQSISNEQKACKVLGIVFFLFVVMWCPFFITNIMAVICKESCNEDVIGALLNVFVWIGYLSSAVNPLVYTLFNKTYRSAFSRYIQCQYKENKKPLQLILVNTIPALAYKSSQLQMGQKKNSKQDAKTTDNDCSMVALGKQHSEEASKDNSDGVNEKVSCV
Measured Metric: inhibition at 1 µM (%)

| Smiles Code | Quantity Unit | Test Value |
| --- | --- | --- |
| O=S(=O)(NCCCCN1CCN(c2noc3ccccc23)CC1)c1cc2ccc(Cl)cc2s1 | % | 95 |
| O=S(=O)(NCCCN1CCC(c2noc3cc(F)ccc23)CC1)c1ccc(F)cc1 | % | 96 |
| O=S(=O)(NCCN1CCC(c2noc3cc(F)ccc23)CC1)c1cccc2ccccc12 | % | 100 |
| O=S(=O)(NCCCCN1CCN(c2noc3ccccc23)CC1)c1cccc(Cl)c1 | % | 88 |

###

biological target: dopaminergic D3 receptor (Homo sapiens, UniProt P35462); assay: Binding assay D3 (h), [3H]methyl-spiperone, CHO cells; set-up: expressed in transfected cells; host or cells: CHO cells; conditions: read-out: D3 [%]
Sequence (P35462 whole entry): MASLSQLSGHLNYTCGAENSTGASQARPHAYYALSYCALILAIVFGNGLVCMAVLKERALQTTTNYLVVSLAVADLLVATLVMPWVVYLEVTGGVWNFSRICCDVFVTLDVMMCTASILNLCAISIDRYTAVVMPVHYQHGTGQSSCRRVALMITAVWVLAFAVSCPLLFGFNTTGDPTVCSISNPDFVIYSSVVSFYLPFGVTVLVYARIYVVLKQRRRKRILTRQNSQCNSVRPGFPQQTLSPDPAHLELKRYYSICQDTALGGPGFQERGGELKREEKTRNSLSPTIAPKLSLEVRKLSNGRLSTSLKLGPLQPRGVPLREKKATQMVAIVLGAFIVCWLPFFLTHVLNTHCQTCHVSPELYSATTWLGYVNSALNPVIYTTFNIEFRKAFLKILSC
// reported inhibition at 1 µM per item

| Compound | inhibition at 1 µM (%) |
| --- | --- |
| O=S(=O)(NCCCN1CCC(c2noc3cc(F)ccc23)CC1)c1ccc(Cl)c(Cl)c1 [Compound 329] | 99 |
| O=c1[nH]c2cccc(N3CCN(CCCNS(=O)(=O)c4ccc5ccccc5c4)CC3)c2[nH]1 [Compound 424] | 98 |
| O=S(=O)(NCCCCN1CCN(c2cccc3[nH]ccc23)CC1)c1ccc2cc(Cl)ccc2c1 [Compound 358] | 99 |
| O=S(=O)(NCCCN1CCC(c2noc3cc(F)ccc23)CC1)c1ccc(OC(F)(F)F)cc1 [Compound 336] | 96 |
| O=S(=O)(NCCCN1CCC(c2noc3cc(F)ccc23)CC1)c1ccc(F)c(F)c1 [Compound 327] | 97 |
| O=S(=O)(NCCCCN1CCC(c2noc3cc(F)ccc23)CC1)c1cccc2scnc12 [Compound 318] | 95 |
| O=S(=O)(NCCCCN1CCC(c2noc3cc(F)ccc23)CC1)c1ccc2cc(Cl)ccc2c1 [Compound 97] | 100 |
| O=S(=O)(NCCCCN1CCC(c2noc3cc(F)ccc23)CC1)c1ccc2cn[nH]c2c1 [Compound 319] | 90 |
| CC(C)(C)c1ccc(S(=O)(=O)NCCCCN2CCN(c3nsc4ccccc34)CC2)cc1 [Compound 233] | 76 |
| O=S(=O)(NCCCCN1CCN(c2nsc3ccccc23)CC1)c1ccc2ccccc2c1 [Compound 2] | 100 |
| Cc1[nH]c2ccc(Cl)cc2c1C1=CCN(CCNS(=O)(=O)c2ccc(Cl)cc2)CC1 [Compound 451] | 30 |
| O=S(=O)(NCCN1CCC(c2noc3cc(F)ccc23)CC1)c1cccc2ccccc12 [Compound 23] | 93 |
| O=S(=O)(NCCCCN1CCN(c2cccc3c2OCCO3)CC1)c1ccc2cc(Cl)ccc2c1 [Compound 387] | 93 |
| O=S(=O)(NCCCN1CCN(c2nsc3ccccc23)CC1)c1ccc2cn[nH]c2c1 [Compound 268] | 98 |
| Cc1c(S(=O)(=O)NCCCCN2CCN(c3cccc4[nH]ccc34)CC2)sc2ccc(F)cc12 [Compound 364] | 100 |
| Cc1cccc(S(=O)(=O)NCCN2CCC(c3noc4cc(F)ccc34)CC2)c1 [Compound 25] | 94 |
